The following compounds are listed with their measured activity coefficient values.
assay: activity coefficient (dimensionless); of the first substance listed, at infinite dilution; xn = mol fraction of the nth substance listed; details: 368.15 K; 101.33 kPa; Liquid; Chromatography; x1 = 0

>  <compound>
C#CCCCCCC [1-octyne] + CCCCCCCCCCCC[N+](C)(C)CCOc1ccccc1.N#C[N-]C#N

>  <activity coefficient>
2.68

$$$$
>  <compound>
C1=CCCCC1 [cyclohexene] + CCCCCCCCCCCC[N+](C)(C)CCOc1ccccc1.O=S(=O)([N-]S(=O)(=O)C(F)(F)F)C(F)(F)F

>  <activity coefficient>
1.69

$$$$
>  <compound>
CCCOCCC [dipropyl ether] + CCCCCCCCCCCC[N+](C)(C)CCOc1ccccc1.N#C[N-]C#N

>  <activity coefficient>
3.68

$$$$
>  <compound>
CCC[N+](=O)[O-] [1-nitropropane] + CCCCCCCCCCCC[N+](C)(C)CCOc1ccccc1.O=S(=O)([N-]S(=O)(=O)C(F)(F)F)C(F)(F)F

>  <activity coefficient>
0.837

$$$$
>  <compound>
C#CCCCCC [1-heptyne] + CCCCCCCCCCCC[N+](C)(C)CCOc1ccccc1.O=S(=O)([N-]S(=O)(=O)C(F)(F)F)C(F)(F)F

>  <activity coefficient>
1.83

$$$$
>  <compound>
Cc1ccccc1 [toluene] + CCCCCCCCCCCC[N+](C)(C)CCOc1ccccc1.O=S(=O)([N-]S(=O)(=O)C(F)(F)F)C(F)(F)F

>  <activity coefficient>
0.893

$$$$
>  <compound>
CCC(=O)OC [methyl propanoate] + CCCCCCCCCCCC[N+](C)(C)CCOc1ccccc1.N#C[N-]C#N

>  <activity coefficient>
1.25

$$$$

---

assay: activity coefficient (dimensionless); of the first substance listed, at infinite dilution; xn = mol fraction of the nth substance listed; conditions: 368.15 K; 101.33 kPa; Liquid; Chromatography; x1 = 0
endpointLabel: activity coefficient

>  <molecule>
Cc1ccccc1C [1,2-dimethylbenzene] + CCCCCCCCCCCC[N+](C)(C)CCOc1ccccc1.N#C[N-]C#N

>  <result>
1.4

$$$$
>  <molecule>
c1ccncc1 [pyridine] + CCCCCCCCCCCC[N+](C)(C)CCOc1ccccc1.O=S(=O)([N-]S(=O)(=O)C(F)(F)F)C(F)(F)F

>  <result>
0.363

$$$$
>  <molecule>
C1CCCCC1 [cyclohexane] + CCCCCCCCCCCC[N+](C)(C)CCOc1ccccc1.N#C[N-]C#N

>  <result>
3.22

$$$$
>  <molecule>
Cc1ccccc1C [1,2-dimethylbenzene] + CCCCCCCCCCCC[N+](C)(C)CCOc1ccccc1.O=S(=O)([N-]S(=O)(=O)C(F)(F)F)C(F)(F)F

>  <result>
1.01

$$$$
>  <molecule>
CC(C)CO [2-methyl-1-propanol] + CCCCCCCCCCCC[N+](C)(C)CCOc1ccccc1.O=S(=O)([N-]S(=O)(=O)C(F)(F)F)C(F)(F)F

>  <result>
1.12

$$$$
>  <molecule>
C1CCCCC1 [cyclohexane] + CCCCCCCCCCCC[N+](C)(C)CCOc1ccccc1.O=S(=O)([N-]S(=O)(=O)C(F)(F)F)C(F)(F)F

>  <result>
2.16

$$$$

---

experiment: activity coefficient (dimensionless); of the first substance listed, at infinite dilution; xn = mol fraction of the nth substance listed; conditions: 338.15 K; 101.33 kPa; Liquid; Chromatography; x1 = 0

>  <molecule>
CCOC(C)=O [ethyl acetate] + CCCCCCCCCCCC[N+](C)(C)CCOc1ccccc1.N#C[N-]C#N

>  <activity coefficient>
1.24

$$$$
>  <molecule>
C#CCCCCCC [1-octyne] + CCCCCCCCCCCC[N+](C)(C)CCOc1ccccc1.O=S(=O)([N-]S(=O)(=O)C(F)(F)F)C(F)(F)F

>  <activity coefficient>
1.86

$$$$
>  <molecule>
c1ccccc1 [benzene] + CCCCCCCCCCCC[N+](C)(C)CCOc1ccccc1.O=S(=O)([N-]S(=O)(=O)C(F)(F)F)C(F)(F)F

>  <activity coefficient>
0.629

$$$$
>  <molecule>
CO [methanol] + CCCCCCCCCCCC[N+](C)(C)CCOc1ccccc1.N#C[N-]C#N

>  <activity coefficient>
0.324

$$$$
>  <molecule>
CCC(=O)OC [methyl propanoate] + CCCCCCCCCCCC[N+](C)(C)CCOc1ccccc1.O=S(=O)([N-]S(=O)(=O)C(F)(F)F)C(F)(F)F

>  <activity coefficient>
0.566

$$$$
>  <molecule>
CCc1ccccc1 [ethylbenzene] + CCCCCCCCCCCC[N+](C)(C)CCOc1ccccc1.N#C[N-]C#N

>  <activity coefficient>
1.45

$$$$
>  <molecule>
C#CCCC [1-pentyne] + CCCCCCCCCCCC[N+](C)(C)CCOc1ccccc1.N#C[N-]C#N

>  <activity coefficient>
1.53

$$$$
